Value source: BigSolDB 2.1

STATED_CONDITIONS: in methanol, 323.15 K
PROPERTY_NAME: solubility (mole fraction)
Give bare numbers.

Value of measured solubility (mole fraction) for the entry "N#Cc1ccc2c(c1)OCO2" : 0.0617

----------
STATED_CONDITIONS: in n-propyl acetate, 313.15 K
PROPERTY_NAME: solubility (mole fraction)
Give bare numbers.

Value of measured solubility (mole fraction) for the entry "N#Cc1ccc2c(c1)OCO2" : 0.235

----------
STATED_CONDITIONS: in DMF, 288.15 K
PROPERTY_NAME: solubility (mole fraction)
Numbers only.

Value of measured solubility (mole fraction) for the entry "N#Cc1ccc2c(c1)OCO2" : 0.212
